System: Adults of Ctenocephalides felis
Assay: Test with cat fleas/oral uptake (Example L)
Assay type: in vivo
Settings: 20 ppm in cattle blood; orally; 28 h
EXPERIMENTAL ENDPOINT: % action/kill (%)

# SMILES STRING, MEASURED NUMBER
data = [
    ("Cc1ccc(SC(=C(Cl)Cl)C(=C2NCCN2Cc2ccc(Cl)nc2)[N+](=O)[O-])cc1", 0),
    ("O=[N+]([O-])/C(C(=C(Cl)Cl)N1CCCC1)=C1\\NCCN1Cc1ccc(Cl)nc1", 40),
    ("O=[N+]([O-])/C(C(=C(Cl)Cl)N1CCSCC1)=C1\\NCCN1Cc1ccc(Cl)nc1", 0),
    ("CN(C(=C(Cl)Cl)/C(=C1/NCCN1Cc1ccc(Cl)nc1)[N+](=O)[O-])C(C)(C)C", 30),
    ("O=[N+]([O-])/C(C(=C(Cl)Cl)N1CCOCC1)=C1\\NCCN1Cc1ccc(Cl)nc1", 80),
]

Attribution: patent US7332512B2
